System: MGC-803
Assay: Cytotoxicity against human MGC803 cells after 24 hrs by SRB assay
Format: functional, cell-based
Active and inactive are the calls of the source. No cut-off for these calls is given here.

| chemical.structure | Activity |
| --- | --- |
| O=C1N2[C@H]3[C@H](C[C@]24SS[C@]12C[C@H]1[C@@H]([C@@H](O)CC[C@@H]1O)N2C4=O)[C@@H](O)CC[C@@H]3O | inactive |
| O=C1C[C@H](O)[C@H](O)[C@@H]2[C@H]1C[C@@]13SS[C@]4(C[C@H]5C(=O)C[C@H](O)[C@H](O)[C@H]5N4C1=O)C(=O)N23 | inactive |
| O=C1C[C@@H]2SS[C@@]34C[C@@H]1[C@@H]([C@H]2O)N3C(=O)[C@@]12C[C@H]3C(=O)[C@H](S1)[C@H](O)[C@H](O)[C@H]3N2C4=O | inactive |
